Biological target: HLA-A*0202 (human)
Experiment: competitive inhibition of 125I-labelled standard peptide binding to purified HLA
pIC50: −log10 of the molar value.
quantity.measured: pIC50

LVCNGVLQGV (modifications not checked) [Peptide 1418.55, … (PSA.213.V10)]; 8.54
FLTLSVTWIGV (modifications not checked) [Peptide 63.0186, … (PSA.3.V11)]; 8.52
